molecular target: C-C chemokine receptor type 2 (Homo sapiens) (UniProt P41597); test: Binding affinity to CCR2 in human THP1 cells assessed as inhibition of MCP1-mediated monocyte migration after 30 mins by Transwell assay relative to untreated control; type: cell-based; conditions: THP-1
Sequence (P41597 whole entry, looked up): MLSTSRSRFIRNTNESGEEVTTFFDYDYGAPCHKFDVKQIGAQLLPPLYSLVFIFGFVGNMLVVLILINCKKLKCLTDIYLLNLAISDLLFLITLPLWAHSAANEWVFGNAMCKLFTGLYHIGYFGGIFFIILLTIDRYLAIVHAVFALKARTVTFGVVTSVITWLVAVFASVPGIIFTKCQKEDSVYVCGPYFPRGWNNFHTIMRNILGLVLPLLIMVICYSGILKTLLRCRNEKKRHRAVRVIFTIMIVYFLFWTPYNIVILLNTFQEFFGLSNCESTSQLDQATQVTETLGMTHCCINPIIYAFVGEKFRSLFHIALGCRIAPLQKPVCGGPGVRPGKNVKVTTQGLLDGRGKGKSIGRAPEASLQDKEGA
The source made the active and inactive calls. The rule behind the calls is not given here. Numbered stars: 1 amine (or outer) side, 2 acyl side, 3 side chain; on linkers, the order of the positions; unused ones are H or OH. Bridge positions count the residues as written; N and C are the ends. Square brackets hold non-standard residues; d marks the D form. Peptide text beside a SMILES is read from it. N(2-Aminoethyl)Gly = O=C(CN(CCN[*:3])[*:1])[*:2]; CO = O=C([*:1])[*:2]; Nlys = NCCCCNCC(=O)O
Choose one outcome from this list and give only that: 1 for active, -1 for inactive

Known results for molecules:
>>> class_label("CC[C@H](C)[C@H](NC(=O)[C@H](CC(C)C)NC(=O)[C@@H](NC(=O)CN1CCCCNC(=O)NCCNCC(=O)N[C@@H](CCSC)C(=O)N[C@@H](CC(C)C)C1=O)C(C)C)C(=O)N[C@@H](CC(C)C)C(N)=O (H-[N(2-Aminoethyl)Gly]ML[Nlys]VLIL-NH2; linker 1-4 via CO)")
-1
>>> class_label("CC[C@H](C)[C@H](NC(=O)[C@H](CC(C)C)NC(=O)CN1CCCCNC(=O)NCCNCC(=O)N[C@@H](CC(C)C)C(=O)N[C@@H](C(C)C)C1=O)C(=O)N[C@@H](CC(C)C)C(N)=O (H-[N(2-Aminoethyl)Gly]LV[Nlys]LIL-NH2; linker 1-4 via CO)")
-1
>>> class_label("CC[C@H](C)[C@H](NC(=O)CN1CCCCNC(=O)NCCN(C(=O)[C@@H](N)CCSC)CC(=O)N[C@@H](C(C)C)C(=O)N[C@@H](C(C)C)C1=O)C(=O)N[C@@H](CC(C)C)C(N)=O (H-M[N(2-Aminoethyl)Gly]VV[Nlys]IL-NH2; linker 2-5 via CO)")
-1

# input for lookup
[Q] Please state the recorded outcome for this molecule: CC[C@H](C)[C@@H]1NC(=O)[C@H](CC(C)C)NC(=O)CN(C(=O)[C@@H](NC(=O)[C@H](CC(C)C)NC(=O)[C@@H](N)CCSC)C(C)C)CCNC(=O)NCCCCN(CC(N)=O)C1=O (H-MLV[N(2-Aminoethyl)Gly]LI[Nlys]-NH2; linker 4-7 via CO)
[A] 1
